Below, each entry is listed with its recorded pIC50.
biological target: B^0AT2/SLC6A15 (eGFP-hSLC6A15) (Homo sapiens, UniProt Q9H2J7); assay: cell-based; set-up: species or system HEK293 eGFP-hSLC6A15
pIC50: −log10 of the molar value.
outcome.measure: pIC50

* CCCCOc1ccc(C2C3=C(CC(C)(C)CC3=O)Nc3ccccc3N2C(=O)c2ccccc2F)cc1 (stereo not drawn) [13e] | 5.85
* COc1ccc(C(=O)N2c3ccccc3NC3=C(C(=O)CCC3)C2c2ccccc2)cc1 (stereo not drawn) [13j] | < 4.10
* O=C1CCCC2=C1C(c1ccccc1)N(C(=O)c1ccc3ccccc3c1)c1ccccc1N2 (stereo not drawn) [13m] | < 4.10
* CC1(C)CC(=O)C2=C(C1)Nc1ccccc1N(Cc1ccccc1)C2c1ccccc1 (stereo not drawn) [13d] | < 4.10
* O=C1CCCC2=C1C(c1ccccc1)N(C(=O)c1ccc(Cl)cc1)c1ccccc1N2 (stereo not drawn) [13h] | < 4.10
* Cc1ccc(C(=O)N2c3ccccc3NC3=C(C(=O)CCC3)C2c2ccccc2)cc1 (stereo not drawn) [13i] | < 4.10
* O=C1CCCC2=C1C(c1ccccc1)N(C(=O)c1ccco1)c1ccccc1N2 (stereo not drawn) [13l] | < 4.26
* COc1ccc(C2C3=C(CC(C)CC3=O)Nc3ccccc3N2C(=O)c2ccc(F)cc2)cc1 (stereo not drawn) [13f] | 5.05
* CC1(C)CC(=O)C2=C(C1)Nc1ccccc1NC2c1ccccc1 (stereo not drawn) [13c] | < 4.10
* COc1cc(C2Nc3ccccc3NC3=C2C(=O)CCC3)ccc1O (stereo not drawn) [13a] | < 4.10
* O=C1CCCC2=C1C(c1ccccc1)N(C(=O)C1CCCCC1)c1ccccc1N2 (stereo not drawn) [13k] | < 4.10
* COc1ccc(C2C3=C(CC(C)(C)CC3=O)Nc3ccccc3N2C(=O)c2ccc(Cl)cc2)cc1OC (stereo not drawn) [13g] | < 4.10

====

Biological target: B^0AT2/SLC6A15 (eGFP-hSLC6A15) (Homo sapiens, UniProt Q9H2J7)
Sequence (Q9H2J7 1-730): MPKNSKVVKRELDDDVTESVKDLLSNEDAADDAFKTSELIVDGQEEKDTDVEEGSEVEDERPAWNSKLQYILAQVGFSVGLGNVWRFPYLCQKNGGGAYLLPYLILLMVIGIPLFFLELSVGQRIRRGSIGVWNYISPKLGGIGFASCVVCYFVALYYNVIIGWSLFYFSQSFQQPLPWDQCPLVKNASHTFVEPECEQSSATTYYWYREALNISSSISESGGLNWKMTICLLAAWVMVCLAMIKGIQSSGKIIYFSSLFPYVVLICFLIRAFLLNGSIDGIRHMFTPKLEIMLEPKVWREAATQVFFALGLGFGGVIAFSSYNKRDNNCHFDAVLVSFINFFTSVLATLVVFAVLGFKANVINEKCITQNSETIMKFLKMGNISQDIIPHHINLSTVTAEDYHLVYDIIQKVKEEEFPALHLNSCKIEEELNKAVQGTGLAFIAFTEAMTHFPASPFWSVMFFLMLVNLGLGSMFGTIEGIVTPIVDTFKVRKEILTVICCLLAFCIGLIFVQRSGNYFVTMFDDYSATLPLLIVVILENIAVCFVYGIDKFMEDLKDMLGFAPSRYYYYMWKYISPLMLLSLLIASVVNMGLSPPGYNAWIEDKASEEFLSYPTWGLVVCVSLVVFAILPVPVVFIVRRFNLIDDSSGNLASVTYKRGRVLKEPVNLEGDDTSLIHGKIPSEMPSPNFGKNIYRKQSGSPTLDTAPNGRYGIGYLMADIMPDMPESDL
Assay: cell-based
Parameters: species or system HEK293 eGFP-hSLC6A15
Below, each entry is listed with its recorded IC50.
outcome.measure: IC50 (nM)

• CC1CC(=O)C2=C(C1)Nc1ccccc1N(C(=O)c1ccccc1)C2c1cc(F)cc(F)c1 (centres unmarked) [14m] = 700
• COc1ccc(C2CC(=O)C3=C(C2)Nc2ccccc2N(C(=O)c2ccccc2)C3c2ccccc2)cc1 (centres unmarked) [14b] = 1000
• COc1ccc(C2C3=C(CC(C)CC3=O)Nc3ccccc3N2C(=O)c2ccccc2)cc1 (centres unmarked) [14c] = 240
• O=C1CC(c2ccccc2)CC2=C1C(c1ccccc1)N(C(=O)c1ccccc1)c1ccccc1N2 (centres unmarked) [14a] = 1100
• COc1ccc(C2C3=C(CC(c4ccc(C)cc4)CC3=O)Nc3ccccc3N2C(=O)c2ccccc2)cc1OC (centres unmarked) [14g] = 2100

====

target: GAT1 (hGAT1) (Homo sapiens, UniProt P30531); experiment: 3H-GABA uptake inhibition, HEK293, 384-well
Sequence (P30531 whole entry): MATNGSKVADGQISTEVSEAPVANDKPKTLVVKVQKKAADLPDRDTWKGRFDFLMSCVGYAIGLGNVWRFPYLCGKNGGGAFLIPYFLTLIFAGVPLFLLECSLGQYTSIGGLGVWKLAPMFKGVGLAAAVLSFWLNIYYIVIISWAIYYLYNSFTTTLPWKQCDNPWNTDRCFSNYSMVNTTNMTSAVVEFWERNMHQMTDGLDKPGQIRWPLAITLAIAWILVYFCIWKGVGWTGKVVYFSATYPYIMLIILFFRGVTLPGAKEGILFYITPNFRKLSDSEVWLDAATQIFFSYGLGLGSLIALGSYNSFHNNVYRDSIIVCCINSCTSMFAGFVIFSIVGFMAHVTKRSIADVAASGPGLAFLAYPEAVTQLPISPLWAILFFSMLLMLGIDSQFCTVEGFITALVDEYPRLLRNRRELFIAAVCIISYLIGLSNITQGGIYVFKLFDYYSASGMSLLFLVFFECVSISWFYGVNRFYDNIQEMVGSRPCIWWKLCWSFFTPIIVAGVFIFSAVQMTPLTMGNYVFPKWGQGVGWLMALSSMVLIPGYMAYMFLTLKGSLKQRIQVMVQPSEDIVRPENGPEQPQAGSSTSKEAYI
Below, each entry is listed with its recorded IC50.
outcome.measure: IC50

• COc1cc(C2C3=C(CC(C)(C)CC3=O)Nc3ccccc3N2C(=O)c2ccccc2)ccc1O (stereo not shown) [11v] = > 80 µM
• COc1ccc(C2C3=C(CC(c4ccc(OC)c(OC)c4)CC3=O)Nc3ccccc3N2C(=O)c2ccccc2)cc1 (stereo not shown) [14f] = > 80 µM
• CC1(C)CC(=O)C2=C(C1)Nc1ccccc1N(C(=O)c1ccccc1)C2c1ccc2c(c1)OCO2 (stereo not shown) [11x] = > 80 µM
• COc1ccc(C2C3=C(CC(c4ccco4)CC3=O)Nc3ccccc3N2C(=O)c2ccccc2)cc1 (stereo not shown) [14d] = > 80 µM
• COc1ccc(C2C3=C(CC(C)CC3=O)Nc3ccccc3N2C(=O)c2ccccc2)cc1 (stereo not shown) [14c] = > 80 µM
• COc1cc(C2C3=C(CCCC3=O)Nc3ccccc3N2C(=O)c2ccccc2)ccc1O (stereo not shown) [10a] = > 80 µM
• CC1(C)CC(=O)C2=C(C1)Nc1ccccc1N(C(=O)c1ccccc1)C2c1ccc(C(C)(C)C)cc1 (stereo not shown) [11n] = > 80 µM

====

biological target: B^0AT2/SLC6A15 (eGFP-hSLC6A15) (Homo sapiens, UniProt Q9H2J7); experiment: cell-based; parameters: species or system HEK293 eGFP-hSLC6A15
pIC50: −log10 of the molar value.
Label yes (1) when pIC50 is at or above 6; otherwise label no (0).

* COc1cccc(C2C3=C(CC(C)(C)CC3=O)Nc3ccccc3N2C(=O)c2ccccc2)c1 (centres unmarked) [11p] | no (0)
* COc1cc(C2C3=C(CC(C)(C)CC3=O)Nc3ccccc3N2C(=O)c2ccccc2)ccc1O (centres unmarked) [11v] | yes (1)
* COC(=O)c1ccc(C2C3=C(CC(C)(C)CC3=O)Nc3ccccc3N2C(=O)c2ccccc2)cc1 (centres unmarked) [11m] | no (0)

====

biological target: B^0AT2/SLC6A15 (eGFP-hSLC6A15) (Homo sapiens, UniProt Q9H2J7); assay: cell-based; set-up: species or system HEK293 eGFP-hSLC6A15
Below, each entry is listed with its recorded IC50.
outcome.measure: IC50 (nM)

* COc1ccc(C2C3=C(CC(c4ccco4)CC3=O)Nc3ccccc3N2C(=O)c2ccccc2)cc1 (centres unmarked) [14d] | 490
* COc1ccc(C2CC(=O)C3=C(C2)Nc2ccccc2N(C(=O)c2ccccc2)C3c2ccc(OC)cc2)cc1 (centres unmarked) [14e] | 1200

====

Target: B^0AT2/SLC6A15 (eGFP-hSLC6A15) (Homo sapiens)
Sequence (Q9H2J7 1-730): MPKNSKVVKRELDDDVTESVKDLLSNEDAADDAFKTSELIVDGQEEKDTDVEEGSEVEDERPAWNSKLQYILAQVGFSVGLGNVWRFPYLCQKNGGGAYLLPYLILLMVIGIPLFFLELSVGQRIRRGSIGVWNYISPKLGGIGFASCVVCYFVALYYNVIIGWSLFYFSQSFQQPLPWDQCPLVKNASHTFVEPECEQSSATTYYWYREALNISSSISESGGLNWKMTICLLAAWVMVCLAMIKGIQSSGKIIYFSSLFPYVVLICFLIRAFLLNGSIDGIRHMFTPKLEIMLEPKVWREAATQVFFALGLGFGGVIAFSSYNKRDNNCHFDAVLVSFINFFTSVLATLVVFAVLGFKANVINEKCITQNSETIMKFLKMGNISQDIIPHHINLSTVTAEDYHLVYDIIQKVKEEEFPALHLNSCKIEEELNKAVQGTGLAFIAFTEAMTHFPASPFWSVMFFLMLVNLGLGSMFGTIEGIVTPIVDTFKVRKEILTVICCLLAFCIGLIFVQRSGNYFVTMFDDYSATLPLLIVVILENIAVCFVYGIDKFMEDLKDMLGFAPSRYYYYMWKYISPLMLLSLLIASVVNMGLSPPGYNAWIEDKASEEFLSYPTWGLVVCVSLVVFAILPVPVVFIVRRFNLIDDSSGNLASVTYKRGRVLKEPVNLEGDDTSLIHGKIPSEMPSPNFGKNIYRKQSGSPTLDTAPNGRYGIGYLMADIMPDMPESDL
Experiment: cell-based
Set-up: species or system HEK293 eGFP-hSLC6A15
pIC50: −log10 of the molar value.
outcome.measure: pIC50

* COc1ccc(C2C3=C(CC(C)(C)CC3=O)Nc3ccccc3N2C(=O)c2ccccc2)cc1 (centres unmarked) [11f] | 6.40
* CC1(C)CC(=O)C2=C(C1)Nc1ccccc1N(C(=O)c1ccccc1)C2c1ccc(F)cc1 (centres unmarked) [11b] | 5.70
* CC(=O)Oc1cccc(C2C3=C(CC(C)(C)CC3=O)Nc3ccccc3N2C(=O)c2ccccc2)c1 (centres unmarked) [11r] | 6.19
* CC1(C)CC(=O)C2=C(C1)Nc1ccccc1N(C(=O)c1ccccc1)C2c1ccc(Br)cc1 (centres unmarked) [11d] | 6.13
* CC1(C)CC(=O)C2=C(C1)Nc1ccccc1N(C(=O)c1ccccc1)C2c1ccc(C(F)(F)F)cc1 (centres unmarked) [11k] | 5.70
* CCCOc1ccc(C2C3=C(CC(C)(C)CC3=O)Nc3ccccc3N2C(=O)c2ccccc2)cc1OC (centres unmarked) [11y] | 5.96
